Each recorded value in this set is attributed to the supplement of paper PMC7411054.

system: HepG2-CANX-COX4; experiment: lowest phenotypically active concentration; higher = less potent; settings: treatment time: 24 h
Below, each entry is listed with its recorded lowest phenotypically active concentration.

Previously resolved entries follow.
smiles=O=C1c2ccccc2-c2nc3nonc3nc21 value_measured="≤ 0.3 µM"
smiles=COc1cc2ncn(-c3cc(OCc4ccccc4C(F)(F)F)c(C(N)=O)s3)c2cc1OC value_measured="≤ 0.3 µM"

Given the compound "O=C(NOC[C@H](O)CO)c1ccc(F)c(F)c1Nc1ccc(I)cc1F" , what is its reported lowest phenotypically active concentration?
≤ 0.3 µM

====

system: WPMY1-CANX-COX4; experiment: phenotypically active (imaging signature differs from DMSO and reproducible) at any of 0.3-9 uM (binary (1 = active, 0 = inactive)); higher = active; settings: treatment time: 24 h
Where a name gives a salt, the structure may show the parent alone.
Bench note: report the call from Y = active, N = inactive

molecule="CC1CCC(C(C)C)C(O)C1 [L-menthol]" group_label=N

I would be grateful if you could indicate the recorded call for CN1C(=O)OC(C)(C)C1=O [trimethadione] .
N

Any idea what this test logged for CC(=O)N1CCN(c2ccc(OC[C@H]3CO[C@](Cn4ccnc4)(c4ccc(Cl)cc4Cl)O3)cc2)CC1 [Ketoconazole] ?
N

Short answer needed: outcome of this test for COC(=O)[C@H]1[C@H]2C[C@H]3c4[nH]c5ccccc5c4CCN3C[C@@H]2CC[C@@H]1O [Corynanthine hydrochloride] ?
N

Recorded test outcome, item "Cc1ccc([N+](=O)[O-])cc1S(=O)(=O)N(C)/N=C/c1cnc2ccc(Br)cn12"
Y
